For each of the compounds below, state its pIC50.
Target: APOL1 (Homo sapiens)
Test: MultiTox-Fluor Multiplex Cytotoxicity Assay in tet-inducible APOL1 T-REx-HEK293 cells (cell rescue, ratio of dead to live cells)
Conditions: tet-inducible transgenic APOL1 T-REx-HEK293 cell lines, 50 ng/mL tet, 24 hours; read-out: IP50 (i.e., IC50 for cell proliferation)
Description: The MultiTox-Fluor Multiplex Cytotoxicity Assay is a single-reagent-addition, homogeneous, fluorescence assay that measures the number of live and dead cells simultaneously in culture wells. […] The MultiTox reagent was added to each well and placed back in the incubator for an additional 30 minutes. The plate was read on the EnVision plate reader. A ratio of dead to live cells was used to normalize, and data was imported, analyzed, and fit using Genedata Screener (Basel, Switzerland) software. […]
pIC50: −log10 of the molar value.

// query pIC50 value for entry CCc1cc2c(s1)CCO[C@@]21CCN(C[C@H]2C[C@@H](NC(=O)C3CNC(=O)O3)C2)[C@@H](C)C1 (stereo partly drawn) [Compound 361]
6.30 to 7.00

For the compound shown here, CCOC(=O)C(C)(O)Cn1cc(CN2CC[C@]3(C[C@@H]2C)OCCc2c3sc(C(F)(F)F)c2CO)cn1 (stereo partly drawn) [Compound 988] , give the reported pIC50.
> 7.00

Requested field: pIC50. Item: CCc1cc2c(s1)CCO[C@@]21CCN(CC(O)C(F)(F)F)[C@@H](C)C1 (stereo partly drawn) [Compound 243]
6.30 to 7.00

// lookup pIC50 for CCc1cc2c(s1)CCOC21CCN(Cc2cn(CC(C)CO)nn2)C(C)C1 (stereo not drawn) [Compound 82]
6.30 to 7.00

Look at this compound and give its reported pIC50. CCc1cc2c(s1)CCOC21CCN(Cc2cn(CC(O)c3cnn(C)c3)nn2)CC1 (stereo not drawn) [Compound 1097]
6.00 to 6.30

Any idea what its pIC50 is? The compound is CCc1cc2c(s1)CCO[C@@]21CCN(Cc2cn(CC3CCC4(CC3)COC4)nn2)[C@@H](C)C1 [Compound 78]
6.30 to 7.00

Name the recorded pIC50 for COC1CO[C@@]2(CCN(Cc3cnn(CCS(C)(=O)=O)c3)[C@@H](C)C2)c2sc(Cl)cc21 (single isomer, unassigned) [Compound 843] .
> 7.00

Reported pIC50 for C[C@H]1C[C@@]2(CCN1Cc1cn(CCS(C)(=O)=O)nn1)OCCc1sc(C(F)F)cc12 [Compound 524] : what is it?
> 7.00

pIC50 lookup needed for CCc1cc2c(s1)CCO[C@@]21CCN(Cc2cn(CCN3C(=O)CCC3=O)nn2)[C@@H](C)C1 [Compound 173] , thanks.
6.30 to 7.00

Would you kindly share the measured pIC50 for C[C@H]1C[C@@]2(CCN1Cc1cnn(CC3CC4(CC4)C(=O)O3)c1)OCCc1c2sc(C(F)(F)F)c1CO (stereo partly drawn) [Compound 981] ?
> 7.00

Which pIC50 reading was recorded for the compound C[C@H]1C[C@@]2(CCN1Cc1cn(CCS(C)(=O)=O)nn1)OC[C@](O)(C(F)F)c1cc(Cl)sc12 [Compound 832] ?
> 7.00

Could you tell me which pIC50 is on file for C[C@H]1C[C@@]2(CCN1Cc1ccc(NS(C)(=O)=O)cc1)OCCc1cc(Cl)sc12 [Compound 638] ?
> 7.00

Field request: pIC50 | item: CCc1cc2c(s1)CCO[C@@]21CCN(Cc2cnc(NCCN(CCO)CCO)nc2)[C@@H](C)C1 [Compound 230]
> 7.00

I am curious: what pIC50 value has been reported for CCc1cc2c(s1)CCO[C@@]21CCN(Cc2cn(CC3(O)CCOCC3)nn2)[C@@H](C)C1 [Compound 190] ?
> 7.00

Quick one: pIC50 of C[C@H]1C[C@@]2(CCN1Cc1ccc(C(=O)N(C)C)cc1)OCCc1cc(Cl)sc12 [Compound 660] ?
6.30 to 7.00

# pIC50 lookup, item CCc1cc2c(s1)CCO[C@@]21CCN(Cc2cn(Cc3cnn(CCO)c3)nn2)[C@@H](C)C1 [Compound 60]
> 7.00

For CCc1cc2c(s1)CCOC21CCN(Cc2cnc(C(C)O)s2)CC1 (stereo not drawn) [Compound 1143] , what is its reported pIC50?
6.00 to 6.30

# get_value(readout='pIC50', item= CCc1cc2c(s1)CCO[C@@]21CCN(C2CC[C@@H](NC(=O)OC(C)(C)C)C2)[C@@H](C)C1 (single isomer, unassigned) [Compound 296] )
6.30 to 7.00

# pIC50 lookup, item C[C@H]1C[C@@]2(CCN1Cc1cn(C3CCOCC3)nn1)OCCc1c2sc(C(F)(F)F)c1CO [Compound 1004]
6.30 to 7.00

pIC50 lookup needed for C[C@H]1C[C@@]2(CCN1Cc1cnn(CC(=O)N(C)C)c1)OCCc1c2sc(C(F)(F)F)c1CO [Compound 897] , thanks.
> 7.00

Look up pIC50: Cc1ncccc1CN1CC[C@]2(C[C@@H]1C)OC[C@H](O)c1cc(Cl)sc12 [Compound 770]
6.30 to 7.00

# pIC50 lookup, item CCc1cc2c(s1)CCO[C@@]21CCN(C[C@H]2C[C@@H](NC(=O)C3CC(C)(O)C3)C2)[C@@H](C)C1 (stereo partly drawn) [Compound 344]
> 7.00

What does the data say about its pIC50? Entry: CCc1ccc(S(=O)(=O)N[C@H]2C[C@@H](CN3CC[C@]4(C[C@@H]3C)OCCc3sc(CC)cc34)C2)s1 [Compound 403]
> 7.00

Dear colleague, I am looking for the recorded pIC50 of the following compound: Cc1cn2nc(CN3CC[C@]4(C[C@@H]3C)OCCc3cc(Cl)sc34)cc2c(NC2CC2)n1 [Compound 637]
> 7.00

Which pIC50 reading was recorded for the compound CCc1cc2c(s1)CCO[C@@]21CCN(Cc2cn(C3CN(S(C)(=O)=O)C3)nn2)[C@@H](C)C1 [Compound 162] ?
> 7.00

Query: pIC50; subject: CCc1cc2c(s1)CCO[C@@]21CCN(CCOC)[C@@H](C)C1 [Compound 278]
6.30 to 7.00

Entry CCc1cc2c(s1)CCO[C@@]21CCN(C[C@H]2C[C@@H](NC(=O)CNS(C)(=O)=O)C2)[C@@H](C)C1 [Compound 364] has what pIC50?
6.30 to 7.00

Recorded pIC50 for CCc1cc2c(s1)CCO[C@@]21CCN(C[C@H]2C[C@@H](NS(=O)(=O)c3cccc(C#N)c3)C2)[C@@H](C)C1 [Compound 400] , please?
> 7.00

Given CCc1cc2c(s1)C(C)COC21CCN(Cc2cn(CCS(C)(=O)=O)nn2)[C@@H](C)C1 (stereo partly drawn) [Compound 537] , state its recorded pIC50.
> 7.00

Which pIC50 value belongs to CCc1cc2c(s1)CCOC21CCN(Cc2cn[nH]c2)CC1 [Compound 1133] ?
6.30 to 7.00

* * *

Target: APOL1 (Homo sapiens, UniProt O14791)
Sequence (O14791 1-398 S342G/I384M): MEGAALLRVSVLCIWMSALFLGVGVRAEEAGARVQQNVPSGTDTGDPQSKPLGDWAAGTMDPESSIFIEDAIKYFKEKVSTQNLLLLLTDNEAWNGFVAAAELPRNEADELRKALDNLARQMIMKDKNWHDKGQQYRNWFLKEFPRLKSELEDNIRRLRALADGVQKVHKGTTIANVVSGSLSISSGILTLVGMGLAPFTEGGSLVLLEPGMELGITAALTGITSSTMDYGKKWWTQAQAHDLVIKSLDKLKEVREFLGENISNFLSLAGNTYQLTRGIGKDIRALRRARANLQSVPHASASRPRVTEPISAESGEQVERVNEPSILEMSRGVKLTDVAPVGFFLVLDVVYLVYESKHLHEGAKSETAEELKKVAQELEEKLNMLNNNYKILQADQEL
Test: MultiTox-Fluor Multiplex Cytotoxicity Assay in tet-inducible APOL1 T-REx-HEK293 cells (cell rescue, ratio of dead to live cells)
Conditions: tet-inducible transgenic APOL1 T-REx-HEK293 cell lines, 50 ng/mL tet, 24 hours; read-out: IP50 (i.e., IC50 for cell proliferation)
Exercise: for every item that follows, state its recorded IC50.

For the molecule `CCc1cc2c(s1)CCO[C@@]21CCN(Cc2cnc(NC(C)(C)CO)nc2)[C@@H](C)C1` , what IC50 is on record?
< 100 nM

Requested read-out: IC50. Entry: `CCc1cc2c(s1)CCOC21CCN(Cc2cn(C[C@H]3CC[C@@H](CO)O3)nn2)CC1`
500 to 1000 nM

Item under review: `CCc1cc2c(s1)CCO[C@@]21CCN(C[C@H]2C[C@@H](NC(=O)CCS(C)(=O)=O)C2)[C@@H](C)C1` . Reported IC50?
< 100 nM

Which IC50 is listed for `Cc1cncc(CN2CC[C@]3(C[C@@H]2C)OCCc2cc(Cl)sc23)c1` ?
100 to 500 nM

IC50 lookup needed for `CCc1cc2c(s1)CCO[C@@]21CCN(C[C@H]2C[C@@H](NC(=O)c3cn(C4CCOCC4)nn3)C2)[C@@H](C)C1` , thanks.
100 to 500 nM

IC50 for C[C@H]1C[C@@]2(CCN1CC1CCCO1)OCCc1cc(CC(F)F)sc12 (stereo partly shown) ?
500 to 1000 nM

What value of IC50 has been reported for the following molecule? CCc1cc2c(s1)CCO[C@@]21CCN(CC2CN(C(=O)CC3CCS(=O)(=O)C3)C2)[C@@H](C)C1 (stereo partly shown)
< 100 nM
